Source listed as the supplement of paper PMC10307832.

- System: NCI-H2347
- protocol summary: relative viability (nuclei count vs DMSO), 5 days (fraction); higher = more cells survive
- protocol conditions: first compound 0.8 µM
Provide the recorded relative viability for the entries that follow.
The answer should be a number; do not append a unit.

Ask | Need relative viability of CCCCCCCCCCCC1=C(O)C(=O)C=C(O)C1=O [Embelin] + COc1cc2c(Oc3ccc(NC(=O)C4(C(=O)Nc5ccc(F)cc5)CC4)cc3F)ccnc2cc1OCCCN1CCOCC1 [Foretinib] (partner 0.25 µM) , thanks.
Reply | 0.837

Ask | Need relative viability of CCCCCCCCCCCC1=C(O)C(=O)C=C(O)C1=O [Embelin] + Cc1nc(NC(=O)N2CCC[C@H]2C(N)=O)sc1-c1ccnc(C(C)(C)C(F)(F)F)c1 [Alpelisib] (partner 2 µM) , thanks.
Reply | 1.16

Ask | Need relative viability of CCCCCCCCCCCC1=C(O)C(=O)C=C(O)C1=O [Embelin] + CS(=O)(=O)CCNCc1ccc(-c2ccc3ncnc(Nc4ccc(OCc5cccc(F)c5)c(Cl)c4)c3c2)o1 [Lapatinib] (partner 2 µM) , thanks.
Reply | 0.929
